The origin of these recorded values is patent US20260234115A1.

Task for the reader: assign each of the following compounds its reported mRNA Content.
- METHOD_SUMMARY: Plate-based fluorescence (RiboGreen) assay: nucleic acid cargo content and encapsulation efficiency of LNPs
- Format: physicochemical
- CONDITION_DETAILS: LNP compositions for in vivo mouse study; four formulations (F1-F4) pooled, or pools of four compounds
- Description: Lipids and active ingredients (e.g., RNA, DNA, etc.) were assembled into LNPs using microfluidic mixing. […] c. Plate-Based Fluorescence (RiboGreen) Assay Nucleic acid cargos in the LNPs were quantified by RiboGreen assay, against a nucleic acid standard curve. […] Following incubation in the dark, fluorescence was measured from the wells, and plotted against the standard curve. Nucleic acid concentration obtained from the Triton-treated samples were used for total cargo concentration quantification. […]

Give the reported mRNA Content for this compound. CCCCCCCCOC(CCC(=O)OCC(COC(=O)CCCCCCOC(=O)C(CCCC)CCCCCC)(COC(=O)CCC(CCCCCC)OC(=O)NCCN1CCCC1)COC(=O)CCC(OCCCCCCCC)OCCCCCCCC)OCCCCCCCC (stereo not drawn)
98 µg/mL

Give the reported mRNA Content for this compound. CCCCCCCC/C=C\CCCCCCCC(=O)OCC(COC(=O)CCCCCCC/C=C\CCCCCCCC)(COC(=O)CCCCCCC/C=C\CCCCCCCC)COC(=O)CCC(CCCCCC)OC(=O)NCCN1CCCC1 (stereo not drawn)
102.4 µg/mL

Give the reported mRNA Content for this compound. CCCCCCC(CCC(=O)OCC(COC(=O)CCCCCCOC(=O)C(CCCC)CCCCCC)(COC(=O)CCCCCCOC(=O)C(CCCC)CCCCCC)COC(=O)CCCCCCOC(=O)C(CCCC)CCCCCC)OC(=O)NCCN1CCCC1 (stereo not drawn)
100 µg/mL

* * *

- Tested on: mouse organs
- METHOD_SUMMARY: In vivo activity screening in mice: organ mean total flux (p/s) of luciferase activity after injection of F2 LNP pools (Table 6, FIG. 7A-7C)
- CONDITION_DETAILS: Mouse 3, dose 1.0 mg/kg, luciferase mRNA
Marks after values point to notes of the source that are not given here.
MEASURED_METRIC: Organ Mean Total Flux Lung

Give the reported Organ Mean Total Flux Lung for this compound. CCCCCCC(CCC(=O)OCC(COC(=O)CCCCCCOC(=O)C(CCCC)CCCCCC)(COC(=O)CCCCCCOC(=O)C(CCCC)CCCCCC)COC(=O)CC12CC3CC(CC(C3)C1)C2)OC(=O)NCCN1CCCC1 (centres unmarked)
71.8 p/s (×10^6)

Give the reported Organ Mean Total Flux Lung for this compound. CCCCCCC(CCC(=O)OCC(COC(=O)CCCCCOC(=O)C(CCCC)CCCCCC)(COC(=O)CCCCCOC(=O)C(CCCC)CCCCCC)COC(=O)CCCCCOC(=O)C(CCCC)CCCCCC)OC(=O)NCCN1CCCC1 (centres unmarked)
19.9 p/s (×10^6)

Give the reported Organ Mean Total Flux Lung for this compound. CCCCCCC(CCC(=O)OCC(COC(=O)CCCC(=O)OCCC(CCCCC)CCCCC)(COC(=O)CCCC(=O)OCCC(CCCCC)CCCCC)COC(=O)CCCC(=O)OCCC(CCCCC)CCCCC)OC(=O)NCCN1CCCC1 (centres unmarked)
81.5 p/s (×10^6)

Give the reported Organ Mean Total Flux Lung for this compound. CCCCCCC(CCCC)COC(=O)CCCCCC(=O)OCC(COC(=O)CCCCCC(=O)OCC(CCCC)CCCCCC)(COC(=O)CCCCCC(=O)OCC(CCCC)CCCCCC)COC(=O)CCC(CCCCCC)OC(=O)NCCN1CCCC1 (centres unmarked)
59.6 p/s (×10^6)

Give the reported Organ Mean Total Flux Lung for this compound. CCCCCCC(CCC(=O)OCC(COC(=O)CCCCC(=O)OCCC(CCCC)CCCCC)(COC(=O)CCCCC(=O)OCCC(CCCCC)CCCCC)COC(=O)CCCCC(=O)OCCC(CCCCC)CCCCC)OC(=O)NCCN1CCCC1 (centres unmarked)
12.1 p/s (×10^6)

Give the reported Organ Mean Total Flux Lung for this compound. CCCCC/C=C\CCOC(=O)CCCCC(=O)OCC(COC(=O)CCCCC(=O)OCC/C=C\CCCCC)(COC(=O)CCC(CCCCCC)OC(=O)NCCN1CCCC1)COC(=O)CC12CC3CC(CC(C3)C1)C2 (centres unmarked)
49.2 p/s (×10^6)

Give the reported Organ Mean Total Flux Lung for this compound. CCCCC/C=C\C/C=C\CCCCCCCCC(CCCCCCCC/C=C\C/C=C\CCCCC)OC(=O)CCCN(C)C [MC3, reference compound]
106.4 p/s (×10^6)

Give the reported Organ Mean Total Flux Lung for this compound. CCCCCCC(CCC(=O)OCC(COC(=O)CCCCCC(=O)OCCC(CCCCC)CCCCC)(COC(=O)CCCCCC(=O)OCCC(CCCCC)CCCCC)COC(=O)CCCCCC(=O)OCCC(CCCCC)CCCCC)OC(=O)NCCN1CCCC1 (centres unmarked)
56.0 p/s (×10^6)

Give the reported Organ Mean Total Flux Lung for this compound. CCCCCCC(CCC(=O)OCC(COC(=O)CCCCCOC(=O)C(CCCC)CCCCCC)(COC(=O)CCCCCOC(=O)C(CCCC)CCCCCC)COC(=O)CC12CC3CC(CC(C3)C1)C2)OC(=O)NCCN1CCCC1 (centres unmarked)
41.0 p/s (×10^6)

Give the reported Organ Mean Total Flux Lung for this compound. CCCCCCC(CCC(=O)OCC(COC(=O)CCCCOC(=O)C(CCCC)CCCCCC)(COC(=O)CCCCOC(=O)C(CCCC)CCCCCC)COC(=O)CCCCOC(=O)C(CCCC)CCCCCC)OC(=O)NCCN1CCCC1 (centres unmarked)
66.6 p/s (×10^6)

Give the reported Organ Mean Total Flux Lung for this compound. CCCCCCCCCOC(=O)CCCCC(=O)OCC(COC(=O)CCCCC(=O)OCCCCCCCCC)(COC(=O)CCCCC(=O)OCCCCCCCCC)COC(=O)CCC(CCCCCC)OC(=O)NCCN1CCCC1 (centres unmarked)
12.1 p/s (×10^6)

* * *

- METHOD_SUMMARY: Dynamic light scattering: LNP particle size and PDI
- Type: physicochemical
- CONDITION_DETAILS: LNP, Formulation F3, N/P 3
MEASURED_METRIC: Size (nm) N/P:3
Value expressed in nm; do not type the unit.

Give the reported Size (nm) N/P:3 for this molecule. CCCCC/C=C\C/C=C\CCCCCCCC(=O)OCC(COC(=O)CCCCCCC/C=C\C/C=C\CCCCC)(COC(=O)CCC(CCCCCC)OC(=O)NCCN1CCCC1)COC(=O)CCC(OCCCCCCCC)OCCCCCCCC (stereo not shown)
105

Give the reported Size (nm) N/P:3 for this molecule. CCCCCCCC/C=C\CCCCCCCC(=O)OCC(COC(=O)CCCCCCC/C=C\CCCCCCCC)(COC(=O)CCCCCCC/C=C\CCCCCCCC)COC(=O)CCC(CCCCCC)OC(=O)NCCN1CCCC1 (stereo not shown)
136

Give the reported Size (nm) N/P:3 for this molecule. CCCCC/C=C\CCOC(=O)CCCCCCC(=O)OCC(COC(=O)CCCCCCC(=O)OCC/C=C\CCCCC)(COC(=O)CCCCCCC(=O)OCC/C=C\CCCCC)COC(=O)CCC(CCCCCC)OC(=O)NCCN1CCCC1 (stereo not shown)
106

Give the reported Size (nm) N/P:3 for this molecule. CCCCCCCC/C=C\CCCCCCCC(=O)OCC(COC(=O)CCCCCCC/C=C\CCCCCCCC)(COC(=O)CCC(CCCCCC)OC(=O)NCCN1CCCC1)COC(=O)CCC(OCCCCCCCC)OCCCCCCCC (stereo not shown)
116

* * *

- METHOD_SUMMARY: Dynamic light scattering: LNP particle size and PDI
- Format: physicochemical
- CONDITION_DETAILS: LNP, Formulation F4, N/P 6
Task for the reader: assign each of the following compounds its reported PDI N/P:6.
Write the value as a bare number.

Give the reported PDI N/P:6 for this compound. CCCCC/C=C\CCOC(=O)CCCCCCC(=O)OCC(COC(=O)CCCCCCC(=O)OCC/C=C\CCCCC)(COC(=O)CCCCCCC(=O)OCC/C=C\CCCCC)COC(=O)CCC(CCCCCC)OC(=O)NCCN1CCCC1 (stereo not drawn) [Compound 10]
0.227

Give the reported PDI N/P:6 for this compound. CCCCC/C=C\C/C=C\CCCCCCCC(=O)OCC(COC(=O)CCCCCCC/C=C\C/C=C\CCCCC)(COC(=O)CCCCCCC/C=C\C/C=C\CCCCC)COC(=O)CCC(CCCCCC)OC(=O)NCCN1CCCC1 (stereo not drawn) [Compound 2]
0.18

Give the reported PDI N/P:6 for this compound. CCCCC/C=C\CCOC(=O)CCCCCC(=O)OCC(COC(=O)CCCCCC(=O)OCC/C=C\CCCCC)(COC(=O)CCC(CCCCCC)OC(=O)NCCN1CCCC1)COC(=O)CCC(OCCCCCCCC)OCCCCCCCC (stereo not drawn) [Compound 9]
0.13

Give the reported PDI N/P:6 for this compound. CCCCC/C=C\C/C=C\CCCCCCCC(=O)OCC(COC(=O)CCCCCCC/C=C\C/C=C\CCCCC)(COC(=O)CCC(CCCCCC)OC(=O)NCCN1CCCC1)COC(=O)CC12CC3CC(CC(C3)C1)C2 (stereo not drawn) [Compound 5]
0.16

Give the reported PDI N/P:6 for this compound. CCCCC/C=C\C/C=C\CCCCCCCC(=O)OCC(COC(=O)CCCCCCC/C=C\C/C=C\CCCCC)(COC(=O)CCC(CCCCCC)OC(=O)NCCN1CCCC1)COC(=O)CCC(OCCCCCCCC)OCCCCCCCC (stereo not drawn) [Compound 6]
0.081

Give the reported PDI N/P:6 for this compound. CCCCC/C=C\CCOC(=O)CCCCCC(=O)OCC(COC(=O)CCCCCCOC(=O)C(CCCC)CCCCCC)(COC(=O)CCCCCC(=O)OCC/C=C\CCCCC)COC(=O)CCC(CCCCCC)OC(=O)NCCN1CCCC1 (stereo not drawn) [Compound 16]
0.15
